Cited source for all entries: ChEMBL document CHEMBL1153442

Molecular target: Caspase-1 (Homo sapiens)
Sequence (P29466 120-297 limits assumed): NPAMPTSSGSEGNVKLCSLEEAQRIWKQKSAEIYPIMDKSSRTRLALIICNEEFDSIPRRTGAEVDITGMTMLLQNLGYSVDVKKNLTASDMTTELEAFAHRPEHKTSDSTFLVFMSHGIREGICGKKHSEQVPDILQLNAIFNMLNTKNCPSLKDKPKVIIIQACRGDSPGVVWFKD
Sequence (P29466 317-404 limits assumed): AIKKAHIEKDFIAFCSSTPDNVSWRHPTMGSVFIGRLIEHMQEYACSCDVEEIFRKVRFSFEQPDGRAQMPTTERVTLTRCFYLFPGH
Assay: Inhibition of human recombinant caspase 1 assessed as accumulation of fluorogenic product by fluorometric assay
Reported Property: IC50 (µM)

>  <Structure Smiles String>
COc1ccc(CN2C(=O)C(=C(C#N)C#N)c3cc(S(=O)(=O)N4CCSCC4)ccc32)cc1

>  <Measure Unit>
µM

>  <IC50>
4.3

$$$$
>  <Structure Smiles String>
N#CC(C#N)=C1C(=O)N(Cc2ccccc2)c2ccc(S(=O)(=O)N3CCC3)cc21

>  <Measure Unit>
µM

>  <IC50>
3.3

$$$$
>  <Structure Smiles String>
COc1ccc(CN2C(=O)C(=C(C#N)C#N)c3cc(S(=O)(=O)N4CCCC4)ccc32)cc1

>  <Measure Unit>
µM

>  <IC50>
4.7

$$$$
